targetSystem: 11β-HSD1 (Homo sapiens)
Construct: detecting cortisol generated from cortisterone by human liver microsomes; from tissue; host or cells: human liver microsomes
assay: In vitro inhibition of 11β-HSD1, HTRF detection of cortisol generated from cortisone by human liver microsomes
Assay type: biochemical
conditionContext: 11β-HSD IC50 (nM), 1 hour at 37° C., pH 6.0, NADPH 200 μM, cortisone 80 nM, inhibition relative to carbenoxolone signal
readoutName: IC50
Please answer using a numeric value trailed by its unit.

Q) # lookup: IC50 of CC1(O)CCN(Cc2ccc(C(=O)N3CC[C@@]4(C)c5cccc(O)c5C[C@@H]3C4(C)C)cc2)CC1
A) 5370 nM

Q) Form field: reported IC50 of COc1cc2c(cc1O)C1(C)CCN(C(=O)c3ccc4nc[nH]c4c3)C(C2)C1(C)C (stereo not drawn)
A) 88 nM

Next:
Q) Look at this compound and give its reported IC50. C#Cc1cc(C(=O)N2CC[C@@]3(C)c4cccc(O)c4C[C@@H]2C3(C)C)ccc1C(=O)N1CCCC1
A) 915 nM

====

targetSystem: 11β-HSD1 (Homo sapiens)
Construct: detecting cortisol generated from cortisterone by human liver microsomes; from tissue; host or cells: human liver microsomes
assay: In vitro inhibition of 11β-HSD1, HTRF detection of cortisol generated from cortisone by human liver microsomes
Assay type: biochemical
conditionContext: 11β-HSD IC50 (nM), 1 hour at 37° C., pH 6.0, NADPH 200 μM, cortisone 80 nM, inhibition relative to carbenoxolone signal
Lab note: cut-off is 400 nM. Strictly less in IC50 is true. Exactly 400 nM or more is false.

# count of solved cases: 2
Q) Please let me know if CC(O)(c1ccc(C(=O)N2CC[C@@]3(C)c4cccc(O)c4C[C@@H]2C3(C)C)cc1)C(F)(F)F (stereo partly shown) shows IC50 below 400 nM.
A) true

Q) Does CC1(C)[C@H]2Cc3c(O)cccc3[C@]1(C)CCN2C(=O)c1n[nH]c2ccccc12 have IC50 strictly under 400 nM?
A) false

More entries:
Q) Does the reported IC50 of CC1(C)[C@H]2Cc3ccccc3[C@]1(C)CCN2C(=O)c1c(F)c(F)c(N)c(F)c1F stay below 400 nM?
A) false

Q) For COc1ccc2c(c1-n1cccc1)[C@]1(C)CCN(C(=O)c3ccc4nc[nH]c4c3)[C@H](C2)[C@H]1C , is the recorded IC50 below the cut-off of 400 nM?
A) true

Q) Answer whether the compound C[C@@H]1CN(C(=O)c2ccc3nc[nH]c3c2)[C@@H]2Cc3ccccc3[C@@]1(C)C2 (racemic) has IC50 strictly less than 400 nM
A) true

Q) Does O=C(c1ccc2nc[nH]c2c1)N1CCC2(c3ccccc3)CC1Cc1ccccc12 (stereo not shown) have IC50 strictly under 400 nM?
A) false

Q) IC50 strictly < 400 nM for this compound? Cc1cnc2cc3c(cc2n1)[C@]1(C)CCN(C(=O)c2ccc4nc[nH]c4c2)[C@H](C3)C1(C)C
A) false

====

targetSystem: 11β-HSD1 (Homo sapiens)
Construct: detecting cortisol generated from cortisterone by human liver microsomes; from tissue; host or cells: human liver microsomes
assay: In vitro inhibition of 11β-HSD1, HTRF detection of cortisol generated from cortisone by human liver microsomes
Assay type: biochemical
conditionContext: 11β-HSD IC50 (nM), 1 hour at 37° C., pH 6.0, NADPH 200 μM, cortisone 80 nM, inhibition relative to carbenoxolone signal
Item-by-item account of IC50
Write it as a number; the unit nM goes unstated.

Q) Value lookup for IC50; key = COC(=O)C12CCN(C(=O)c3ccc4ncsc4c3)C(Cc3ccc(O)cc31)C2 (stereo not shown)
A) 6720

Continuing:
Q) Request the reported IC50 associated with CC1(C)[C@H]2Cc3ccc(O)cc3[C@]1(C)CCN2C(=O)c1ccc2nc[nH]c2c1
A) 40

Q) Request the reported IC50 associated with CC[C@]12CCN(C(=O)c3ccc4nc[nH]c4c3)[C@H](Cc3ccc(O)cc31)[C@@H]2C (racemic)
A) 622

Q) What IC50 value was documented for this compound, Cc1ncc(-c2ccc3c(c2)[C@]2(C)CCN(C(=O)c4ccc5nc[nH]c5c4)[C@H](C3)[C@H]2C)cn1 ?
A) 61

Q) Which measured IC50 value corresponds to CC(=O)Nc1ccc(C(=O)N2CC[C@@]3(C)c4cccc(O)c4C[C@@H]2C3(C)C)cc1 ?
A) 354

Q) Given the compound CC12CCN(C(=O)c3ccc4nc[nH]c4c3)C(Cc3cc4c(cc31)OCO4)C2(C)C (stereo not shown) , what is its reported IC50?
A) 123

Q) Reported IC50, compound CC1(C)[C@H]2Cc3c(O)cccc3[C@]1(C)CCN2C(=O)c1cc(-c2ccccc2)n[nH]1 : ____
A) 2430

====

targetSystem: 11β-HSD1 (Homo sapiens, UniProt P28845)
Construct: detecting cortisol generated from cortisterone by human liver microsomes; from tissue; host or cells: human liver microsomes
Sequence (P28845 whole entry): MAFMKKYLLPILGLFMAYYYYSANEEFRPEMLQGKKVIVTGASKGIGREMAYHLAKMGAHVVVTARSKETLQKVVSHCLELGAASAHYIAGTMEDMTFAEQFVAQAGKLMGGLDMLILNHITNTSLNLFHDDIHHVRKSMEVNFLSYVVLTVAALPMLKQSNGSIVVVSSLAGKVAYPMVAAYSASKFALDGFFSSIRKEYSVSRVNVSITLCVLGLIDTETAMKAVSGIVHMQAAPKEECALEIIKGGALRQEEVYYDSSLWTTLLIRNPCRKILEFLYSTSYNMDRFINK
assay: In vitro inhibition of 11β-HSD1, HTRF detection of cortisol generated from cortisone by human liver microsomes
Assay type: biochemical
conditionContext: 11β-HSD IC50 (nM), 1 hour at 37° C., pH 6.0, NADPH 200 μM, cortisone 80 nM, inhibition relative to carbenoxolone signal
With a cut-off of 200 nM, any IC50 strictly below it is called Criterion met; any IC50 meeting it or above is called Criterion not met.

Q) Report whether reported IC50 is lower than 200 nM (strictly) for CN(C(=O)c1ccc(C(=O)N2CC[C@@]3(C)c4cccc(O)c4C[C@@H]2C3(C)C)cc1)c1ccccc1 [Example 208]
A) Criterion not met

Q) A record lists COc1ccc(C(=O)N2CC[C@@]3(C)c4cccc(O)c4C[C@@H]2C3(C)C)cc1 [Example 14] . Is its IC50 below 200 nM?
A) Criterion not met

Q) Determine whether this molecule shows IC50 lower than 200 nM (ties excluded): CC1(C)[C@H]2Cc3ccccc3[C@]1(C)CCN2C(=O)c1ccc(O)cc1 [Example 318]
A) Criterion met

Q) Determine whether this molecule shows IC50 lower than 200 nM (ties excluded): CC1(C)[C@H]2Cc3c(O)cccc3[C@]1(C)CCN2C(=O)c1n[nH]c2c1CCCC2 [Example 219]
A) Criterion met

Q) Decide: IC50 of COc1cccc2[nH]cc(C(=O)N3CC[C@@]4(C)c5cccc(O)c5C[C@@H]3C4(C)C)c12 [Example 195] strictly below 200 nM?
A) Criterion not met

New cases:
Q) Determine if CC12CCN(C(=O)c3ccc4ncsc4c3)C(Cc3ccc(O)cc31)C2 (stereo not drawn) [Example 92] shows IC50 strictly lower than 200 nM.
A) Criterion not met

Q) Is IC50 strictly under 200 nM for the entry COc1cc2c(cc1C)C[C@H]1N(C(=O)c3ccc4nc[nH]c4c3)CC[C@]2(C)C1(C)C (stereo in doubt) [Example 62] ?
A) Criterion met

====

targetSystem: 11β-HSD1 (Homo sapiens)
Construct: detecting cortisol generated from cortisterone by human liver microsomes; from tissue; host or cells: human liver microsomes
assay: In vitro inhibition of 11β-HSD1, HTRF detection of cortisol generated from cortisone by human liver microsomes
Format: biochemical
conditionContext: 1 hour at 37° C., pH 6.0, NADPH 200 μM, cortisone 80 nM, inhibition relative to carbenoxolone signal, read-out: 11β-HSD IC50
Listed here are compounds together with their documented IC50.
Respond numerically; units are nM and should not be typed.

Here is how some compounds turned out for IC50.
Q) Test system 11β-HSD1 (Homo sapiens); read-out IC50; what value for COc1ccc2c(c1)C1CCN(C(=O)c3ccc4nc[nH]c4c3)C1C2 (centres unmarked) [Example 321] ?
A) 1170

Q) Given the entry CC1C2c3ccc(O)cc3CC2N(C(=O)c2ccc3nc[nH]c3c2)CC1(C)C (centres unmarked) [Example 330] , what IC50 was observed with 11β-HSD1 (Homo sapiens)?
A) 44

New cases:
Q) Look up IC50 with 11β-HSD1 (Homo sapiens) for this compound: O=C(c1ccc2nc[nH]c2c1)N1CCC2CC1Cc1c2[nH]c2ccccc12 (centres unmarked) [Example 245]
A) 257

Q) What reported IC50 corresponds to CC12CCN(C(=O)c3ccc4nc[nH]c4c3)C(CCc3ccccc31)C2 (centres unmarked) [Example 98] on 11β-HSD1 (Homo sapiens)?
A) 125

Q) Return IC50 measured with 11β-HSD1 (Homo sapiens) given this compound: CC12CC(Cc3ccccc31)N(C(=O)c1ccc3nc[nH]c3c1)C2 (centres unmarked) [Example 323]
A) 620

Q) Query IC50 on 11β-HSD1 (Homo sapiens) for COc1ccc2c(c1)C1CCN(C(=O)c3ccc4nc[nH]c4c3)C2C1 (centres unmarked) [Example 99]
A) 285

Q) Which IC50 is reported with 11β-HSD1 (Homo sapiens) for this entry: O=C(c1ccc2nc[nH]c2c1)N1CCC2CC1c1ccc(O)cc12 (centres unmarked) [Example 100] ?
A) 564

Q) Observed IC50 on 11β-HSD1 (Homo sapiens) for Cn1cc(C2=NC3=CC4=C(CC3=N2)C[C@H]2N(C(=O)c3ccc5nc[nH]c5c3)CC[C@]4(C)C2(C)C)ccc1=O [Example 272] , please.
A) 44

Every entry's value here was drawn from patent US8859580B2.
